target-desc: Beta-galactoside alpha-2,6-sialyltransferase 1 (Homo sapiens)
Sequence (P15907 whole entry, the tested form may be a part): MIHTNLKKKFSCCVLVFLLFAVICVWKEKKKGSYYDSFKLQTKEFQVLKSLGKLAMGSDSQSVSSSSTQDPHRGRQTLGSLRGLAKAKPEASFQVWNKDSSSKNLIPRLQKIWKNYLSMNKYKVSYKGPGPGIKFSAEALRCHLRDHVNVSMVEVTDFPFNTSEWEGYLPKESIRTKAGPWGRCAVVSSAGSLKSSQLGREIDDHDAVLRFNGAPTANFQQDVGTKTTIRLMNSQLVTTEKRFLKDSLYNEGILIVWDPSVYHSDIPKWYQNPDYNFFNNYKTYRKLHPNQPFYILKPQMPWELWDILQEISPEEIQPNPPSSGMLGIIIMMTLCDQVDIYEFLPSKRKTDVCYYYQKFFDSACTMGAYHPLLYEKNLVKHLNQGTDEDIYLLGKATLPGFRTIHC
protocol-details: Inhibition of recombinant human N-terminal His-tagged ST6Gal-1 (44 to 406 residues) using CMP-Neu5Ac as substrate […] by UV/RP-HPLC method
outcome-measure: Ki (nM)
Answers are plain numbers, in nM.

Worked cases, answers included:
molecule: Nc1ccn([C@@H]2O[C@H](COP(=O)(O)OC(CN3C(=O)CCC3=O)P(=O)(O)O)[C@@H](O)[C@H]2O)c(=O)n1 (stereo in doubt; 5e-s)
outcome-measure: Ki
assay-result: 224
//
molecule: Nc1ccn([C@@H]2O[C@H](COP(=O)(O)OC(C(=O)N3CCCC3)P(=O)(O)O)[C@@H](O)[C@H]2O)c(=O)n1 (stereo in doubt; 5c-S)
outcome-measure: Ki
assay-result: 60

Next item in the queue.
Consider the molecule shown here: Nc1ccn([C@@H]2O[C@H](COP(=O)(O)O[C@@H](c3cccc(Oc4ccccc4)c3)P(=O)(O)O)[C@@H](O)[C@H]2O)c(=O)n1 What is its recorded Ki? 19
